Tested on: HL-60(TB) leukemia
protocol: NCI-60 one-dose screen, 48 h
experimental-setup: 10 µM unless noted
This is part of a sample that, as a whole, favours compounds with a hit. Of some 83,000 tested, about 20% had one in any assay. Activity calls are given as the source filed them. How the source made its calls: active means growth percent below 10; inactive means the rest.
Please answer using one outcome listed in active, inactive

{"columns": ["compound", "class-name"],
 "data": [
  ["CN(C)CCCNCc1ccc(-c2ccc(F)c(Cl)c2)o1", "active"],
  ["c1ccc2cc(C[n+]3ccn(CCCCCCCCCCCCn4cc[n+](Cc5ccc6ccccc6c5)c4)c3)ccc2c1", "active"],
  ["COc1ccc(C(=O)OC2C(OC3C(O)COC(O[C@H]4C[C@H]5[C@@H]6CC=C7C[C@@H](O)CC[C@]7(C)[C@H]6CC[C@]5(C)[C@H]4[C@H](C)C(=O)CCC(C)C)C3OC(N)=O)OCC(O)C2O)cc1 (stereo partly drawn)", "active"],
  ["CN(C)c1ccc(/C=C2\\C=C(c3ccccc3)N(CCc3ccccc3)C2=O)cc1", "inactive"],
  ["Nc1ncnc2c1N=C(c1ccc([N+](=O)[O-])cc1)CC(c1ccc3c(c1)OCO3)N2 (stereo not drawn)", "inactive"],
  ["Nc1ccc([N+](=O)[O-])cc1N=C/C=C/c1ccccc1", "active"],
  ["C[C@@H]1CC[C@@H]2[C@@H]1[C@H](OC(=O)c1ccc3ccccc3c1)[C@]1(C3CCCCC3)C[C@@H](OC(=O)CO)[C@@]2(C)O1", "inactive"]
]}

Please find the next compound below.
# outcome recorded in this test, key = N#Cc1ccc(O)c(C2=NCC(c3ccc(-c4ccccc4)cc3)O2)c1 (stereo not drawn)
active
